compounds and their reported combination Emax
Tested on: IGR-37 (Melanoma)
Test summary: combination Emax (second highest fraction inhibited in the dose matrix, 72 h); higher = more inhibition; extreme values may be limits of the assay
// return a plain number; no unit text

Record excerpt, results attached:
>>> val("CN(C)CCCOc1ccc(-c2ccc3ncc4c(c3c2)n(C2CCOCC2)c(=O)n4C)cn1 [AZD0156] + C[C@@H]1COCCN1C2=NC(=NC(=C2)C3(CC3)[S@](=N)(=O)C)C4=C5C=CNC5=NC=C4 [AZD6738] (first compound max 1 µM, 7x7, partner max 10 µM)")
0.781
>>> val("CN(CCO)CC[C@H](CSc1ccccc1)Nc1ccc(S(=O)(=O)NC(=O)c2ccc(N3CCC([C@@H](O)c4ccccc4-c4ccc(Cl)cc4)CC3)cc2)cc1S(=O)(=O)C(F)(F)F [AZD4320] + Cc1cc2ncnn2cc1Nc1ncc2c(n1)n(C1CCOCC1)c(=O)n2C [AZD7648] (first compound max 1 µM, 7x7, partner max 10 µM)")
0.18

Exam item: Tell me combination Emax of C[C@@H]1COCCN1c1cc(C2([S@](C)(=N)=O)CC2)nc(-c2ccnc3[nH]ccc23)n1 [AZD6738] + C1CC(C1)(C(=O)[O-])C(=O)[O-].N.N.[Pt+2] [Carboplatin] (first compound max 10 µM, 7x7, partner max 10 µM) when tested on IGR-37 (Melanoma).
Marked response: 0.616
